ASSAY OVERVIEW: Pharmacokinetic study, single i.p. dose, plasma LC-MS/MS
Assay type: in vivo, rat
RUN PARAMETERS: ip; rat plasma, single i.p. dose of 10 mg/kg; read-out: λz (terminal elimination rate constant) (converted)
Some compounds, each annotated with its measured k el.
A number alone suffices; assume s⁻¹.

Query string: Given the entry "CCC(=O)c1ccc(OCCCCCCCCN2CCN(c3ccncc3)CC2)cc1" , report its measured k el.
Result string: 6.94e-05

Turning now to a further compound:
Query string: Given the entry "CCC(=O)c1ccc(OCCCCCCN2CCN(c3ccncc3)CC2)cc1" , report its measured k el.
Result string: 7.22e-05
